Concentration at which degradation of FAK protein is evident values by entry
Target: UniProtKB Q05397
Sequence (Q05397 whole entry): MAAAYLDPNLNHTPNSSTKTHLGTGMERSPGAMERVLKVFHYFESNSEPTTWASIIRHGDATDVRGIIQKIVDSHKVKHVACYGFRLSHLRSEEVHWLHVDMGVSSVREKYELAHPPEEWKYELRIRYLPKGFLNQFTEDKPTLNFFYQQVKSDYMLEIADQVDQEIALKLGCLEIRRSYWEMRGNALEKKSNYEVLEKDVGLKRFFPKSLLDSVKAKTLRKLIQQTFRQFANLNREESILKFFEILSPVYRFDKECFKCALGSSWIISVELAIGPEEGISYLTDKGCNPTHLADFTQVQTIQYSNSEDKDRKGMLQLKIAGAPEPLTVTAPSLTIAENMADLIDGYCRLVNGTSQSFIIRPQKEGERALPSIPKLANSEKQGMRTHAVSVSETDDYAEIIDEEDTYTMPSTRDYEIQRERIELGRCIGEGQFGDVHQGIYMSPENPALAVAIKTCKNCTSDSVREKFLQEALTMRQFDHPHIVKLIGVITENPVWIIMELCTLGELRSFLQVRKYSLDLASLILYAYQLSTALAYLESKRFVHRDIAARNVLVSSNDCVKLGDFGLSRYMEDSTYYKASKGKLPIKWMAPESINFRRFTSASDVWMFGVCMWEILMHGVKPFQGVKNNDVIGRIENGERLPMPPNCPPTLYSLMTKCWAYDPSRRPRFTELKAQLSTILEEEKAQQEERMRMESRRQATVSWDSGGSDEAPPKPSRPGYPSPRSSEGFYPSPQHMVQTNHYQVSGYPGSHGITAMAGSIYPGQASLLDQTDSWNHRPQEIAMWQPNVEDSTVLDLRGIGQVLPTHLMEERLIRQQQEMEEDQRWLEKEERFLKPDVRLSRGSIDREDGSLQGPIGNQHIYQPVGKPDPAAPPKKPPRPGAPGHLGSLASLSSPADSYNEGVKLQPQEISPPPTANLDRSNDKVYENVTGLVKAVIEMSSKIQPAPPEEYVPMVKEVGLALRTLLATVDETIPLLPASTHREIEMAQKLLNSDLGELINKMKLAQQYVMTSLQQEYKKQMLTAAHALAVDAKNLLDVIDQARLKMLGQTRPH
Experiment: FAK degradation by immunoblot in PA-TU-8988T cells
Format: cell-based
Set-up: endogenous in cells; host or cells: PA-TU-8988T
Conditions: PA-TU-8988T cells, 4 hours, immunoblot
Kindly answer with a numeric value in nM, unit omitted.

Examples with answers:
| Compound | Numeric value |
| --- | --- |
| CNC(=O)c1ccccc1Nc1cc(Nc2ccc(N3CCN(CCCCCCCCNC(=O)CNc4cccc5c4C(=O)N(C4CCC(=O)NC4=O)C5=O)CC3)cc2OC)ncc1C(F)(F)F (centres unmarked) [Compound 5] | 1 |
| CNC(=O)c1ccccc1Nc1cc(Nc2ccc(N3CCN(CCOCCOCCNC(=O)CNc4cccc5c4C(=O)N(C4CCC(=O)NC4=O)C5=O)CC3)cc2OC)ncc1C(F)(F)F (centres unmarked) [Compound 4] | 10 |
| CNC(=O)c1ccccc1Nc1cc(Nc2ccc(N3CCN(CCCCCCNC(=O)COc4cccc5c4C(=O)N(C4CCC(=O)NC4=O)C5=O)CC3)cc2OC)ncc1C(F)(F)F (centres unmarked) [Compound 1] | 1 |
| CS(=O)(=O)c1cccc(CNc2nc(Nc3ccc(C(=O)NCCCCCCCCNC(=O)COc4cccc5c4C(=O)N(C4CCC(=O)NC4=O)C5=O)cc3)ncc2C(F)(F)F)c1 (centres unmarked) [Compound 7] | 10 |

Please examine the following record next.
input: Look at this compound and give its reported Concentration at which degradation of FAK protein is evident. CNC(=O)c1ccccc1Nc1cc(Nc2ccc(N3CCN(CCCCCCCCNc4cccc5c4C(=O)N(C4CCC(=O)NC4=O)C5=O)CC3)cc2OC)ncc1C(F)(F)F (centres unmarked) [Compound 6]
output: 10

---

Dear all, this message contains pIC50 results, target or system ALK (Homo sapiens, UniProt Q9UM73).
# pIC50 is unitless: minus log10 of the molar concentration; print number only

| Compound | pIC50 |
| --- | --- |
| CNC(=O)c1ccccc1Nc1cc(Nc2ccc(N3CCOCC3)cc2OC)ncc1C(F)(F)F [VS-4718, reference compound] | 7.39 |

// below: pIC50 requested for another compound
input: Returns the measured pIC50 for the input compound. Input: CNC(=O)c1ccccc1Nc1cc(Nc2cc(C)c(C3CCNCC3)cc2OC(C)C)ncc1C(F)(F)F [Compound 13]
output: 7.58

---

Target: UniProt Q05397
Assay: FAK degradation by immunoblot in PA-TU-8988T cells
Type: cell-based
Parameters: endogenous in cells; host or cells: PA-TU-8988T
Settings: PaTu 8988t; total FAK protein, PA-TU-8988T cells, 100 nM, 4 hours, vs DMSO; read-out: Degradation at 100 nM
inhibition at 0.1 µM reference

Please review the entries below; each comes with its answer.
| Compound | inhibition at 0.1 µM |
| --- | --- |
| CNC(=O)c1ccccc1Nc1cc(Nc2ccc(N3CCN(CCCCCCNC(=O)COc4cccc5c4C(=O)N(C4CCC(=O)N(C)C4=O)C5=O)CC3)cc2OC)ncc1C(F)(F)F (centres unmarked) [Compound 2] | 0 to 24% |
| CNC(=O)c1ccccc1Nc1cc(Nc2ccc(N3CCN(CCCCCCNC(=O)COc4cccc5c4C(=O)N(C4CCC(=O)NC4=O)C5=O)CC3)cc2OC)ncc1C(F)(F)F (centres unmarked) [Compound 1] | 85 to 100% |
| CNC(=O)c1ccccc1Nc1cc(Nc2ccc(N3CCN(CCOCCOCCNC(=O)CNc4cccc5c4C(=O)N(C4CCC(=O)NC4=O)C5=O)CC3)cc2OC)ncc1C(F)(F)F (centres unmarked) [Compound 4] | 85 to 100% |
| CNC(=O)c1ccccc1Nc1cc(Nc2ccc(N3CCN(CCCCCCCCNc4cccc5c4C(=O)N(C4CCC(=O)NC4=O)C5=O)CC3)cc2OC)ncc1C(F)(F)F (centres unmarked) [Compound 6] | 85 to 100% |
| CNC(=O)c1ccccc1Nc1cc(Nc2ccc(N3CCN(CCOCCOCCOCCNC(=O)COc4cccc5c4C(=O)N(C4CCC(=O)NC4=O)C5=O)CC3)cc2OC)ncc1C(F)(F)F (centres unmarked) [Compound 3] | 85 to 100% |

input: Identify the measured inhibition at 0.1 µM of CNC(=O)c1ccccc1Nc1cc(Nc2cc(C)c(C3CCN(CCCCCCNC(=O)COc4cccc5c4C(=O)N(C4CCC(=O)NC4=O)C5=O)CC3)cc2OC(C)C)ncc1C(F)(F)F (centres unmarked) [Compound 9] for UniProt Q05397.
output: 85 to 100%

input: Tell me reported inhibition at 0.1 µM for CS(=O)(=O)c1cccc(CNc2nc(Nc3ccc(C(=O)NCCCCCCCCNC(=O)COc4cccc5c4C(=O)N(C4CCC(=O)NC4=O)C5=O)cc3)ncc2C(F)(F)F)c1 (centres unmarked) [Compound 7] , tested with UniProt Q05397.
output: 85 to 100%

input: // map CNC(=O)c1ccccc1Nc1cc(Nc2cc(C)c(C3CCNCC3)cc2OC(C)C)ncc1C(F)(F)F [Compound 13] to recorded inhibition at 0.1 µM (system: UniProt Q05397)
output: 0 to 24%

// data source = patent US12653894B2
